Target: HIV-1 JR-CSF Env R304A (HIV-1 JR-CSF) (UniProt P20871)
Test: cell-based or functional assay
Some binders, each annotated with its measured Fold IC50 increase relative to wild-type.

- binder: "PGT-125 (antibody, V domains shown) VH: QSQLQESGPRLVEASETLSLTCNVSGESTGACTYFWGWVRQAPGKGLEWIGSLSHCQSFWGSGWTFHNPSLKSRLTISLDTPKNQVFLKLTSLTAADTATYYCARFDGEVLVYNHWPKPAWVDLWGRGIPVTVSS VL: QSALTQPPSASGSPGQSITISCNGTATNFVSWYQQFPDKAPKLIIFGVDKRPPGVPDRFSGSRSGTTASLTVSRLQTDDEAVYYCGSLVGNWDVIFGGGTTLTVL"
  scale unit: "fold"
  Fold IC50 increase relative to wild-type: 1.9
- binder: "PGT-131 (antibody, V domains shown) VH: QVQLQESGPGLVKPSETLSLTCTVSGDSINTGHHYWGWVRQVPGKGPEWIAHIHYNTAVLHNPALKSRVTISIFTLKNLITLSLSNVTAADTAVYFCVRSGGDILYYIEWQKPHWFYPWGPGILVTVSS VL: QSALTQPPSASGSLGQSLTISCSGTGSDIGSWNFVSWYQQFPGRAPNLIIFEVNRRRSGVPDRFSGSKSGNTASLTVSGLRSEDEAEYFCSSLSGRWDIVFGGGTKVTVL"
  scale unit: "fold"
  Fold IC50 increase relative to wild-type: 1.5
- binder: "PGT-127 (antibody, V domains shown) VH: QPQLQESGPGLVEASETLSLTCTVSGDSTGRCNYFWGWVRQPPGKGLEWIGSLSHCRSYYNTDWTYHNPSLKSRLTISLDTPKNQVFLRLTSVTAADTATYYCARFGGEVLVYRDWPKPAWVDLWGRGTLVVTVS VL: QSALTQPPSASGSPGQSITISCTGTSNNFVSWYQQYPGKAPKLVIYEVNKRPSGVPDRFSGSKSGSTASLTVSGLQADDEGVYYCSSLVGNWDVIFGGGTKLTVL"
  scale unit: "fold"
  Fold IC50 increase relative to wild-type: 0.4
- binder: "PGT-128 (antibody, V domains shown) VH: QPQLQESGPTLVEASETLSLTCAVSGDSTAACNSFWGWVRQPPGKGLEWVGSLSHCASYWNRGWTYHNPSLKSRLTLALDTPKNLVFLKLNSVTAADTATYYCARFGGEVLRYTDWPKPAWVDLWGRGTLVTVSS VL: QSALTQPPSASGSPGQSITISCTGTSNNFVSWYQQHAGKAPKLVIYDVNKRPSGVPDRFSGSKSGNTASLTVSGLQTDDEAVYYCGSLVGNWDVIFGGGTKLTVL"
  scale unit: "fold"
  Fold IC50 increase relative to wild-type: 0.7
- binder: "PGT-135 (antibody, V domains shown) VH: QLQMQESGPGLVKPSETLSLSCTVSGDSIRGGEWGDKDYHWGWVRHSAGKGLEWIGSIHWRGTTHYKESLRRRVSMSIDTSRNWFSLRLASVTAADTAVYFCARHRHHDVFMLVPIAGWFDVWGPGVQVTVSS VL: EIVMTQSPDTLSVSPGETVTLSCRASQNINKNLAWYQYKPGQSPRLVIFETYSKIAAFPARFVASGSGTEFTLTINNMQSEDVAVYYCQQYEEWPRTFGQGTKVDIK"
  scale unit: "fold"
  Fold IC50 increase relative to wild-type: 0.7

meta.source: patent US20200024330A1
